Origin of measurements: patent US20070032529A1

experimentalTarget: recombinant human liver glycogen phosphorylase (Homo sapiens)
Construct: made in house; host or cells: Sf9 insect cells (crude homogenate, diluted, used as the enzyme solution)
assayName: Measuring liver glycogen phosphorylase activity (forward reaction system, NADPH absorbance at 340 nm)
Format: biochemical
details: figure in brackets (100); read-out: IC50: % value given with (100)
quantityKind: inhibition at 0.1 µM
Give your result as the value with the unit written after it.

Examples with answers:
compound | quantityKind | endpointValue
CN(C(=O)c1cc(NC(=O)c2cc(F)c(F)cc2Cl)[nH]n1)c1ccc(C(=O)OCOC(=O)C(C)(C)C)cc1 | inhibition at 0.1 µM | 17.5%
Nc1cc(F)c(F)cc1C(=O)Nc1cc(C(=O)NCc2cccnc2)n[nH]1 | inhibition at 0.1 µM | 47.3%
CN(C(=O)c1cc(NC(=O)c2cc(F)c(F)cc2Cl)[nH]n1)c1ccc(C(=N)NO)cc1 | inhibition at 0.1 µM | 2.1%
CC(OC(=O)OC1CCCCC1)OC(=O)c1ccc(N(C)C(=O)c2cc(NC(=O)c3cc(F)c(F)cc3Cl)[nH]n2)cc1 (stereo not drawn) | inhibition at 0.1 µM | 9.8%
O=C(NC1Cc2ccccc2C1)c1cc(NC(=O)c2cc(F)c(F)cc2Cl)[nH]n1 | inhibition at 0.1 µM | 21.7%

Data request: In one line, give reported inhibition at 0.1 µM of the entry NC(=O)CNC(=O)c1cc(NC(=O)c2cc(F)c(F)cc2Cl)[nH]n1 .
Data returned: 15.5%

Data request: In one line, give reported inhibition at 0.1 µM of the entry O=C(NC1CCc2ccccc21)c1cc(NC(=O)c2cc(F)c(F)cc2Cl)[nH]n1 (stereo not drawn) .
Data returned: 12.3%

Data request: In one line, give reported inhibition at 0.1 µM of the entry CC(=O)Nc1cc(F)c(F)cc1C(=O)Nc1cc(C(=O)NCc2cccnc2)n[nH]1 .
Data returned: 1.9%

Data request: In one line, give reported inhibition at 0.1 µM of the entry CCOC(=O)c1csc(N(CC)C(=O)c2cc(NC(=O)c3cc(F)c(F)cc3Cl)[nH]n2)n1 .
Data returned: 6.8%

====

experimentalTarget: recombinant human liver glycogen phosphorylase (Homo sapiens, UniProt P06737)
Construct: made in house; host or cells: Sf9 insect cells (crude homogenate, diluted, used as the enzyme solution)
Sequence (P06737 whole entry): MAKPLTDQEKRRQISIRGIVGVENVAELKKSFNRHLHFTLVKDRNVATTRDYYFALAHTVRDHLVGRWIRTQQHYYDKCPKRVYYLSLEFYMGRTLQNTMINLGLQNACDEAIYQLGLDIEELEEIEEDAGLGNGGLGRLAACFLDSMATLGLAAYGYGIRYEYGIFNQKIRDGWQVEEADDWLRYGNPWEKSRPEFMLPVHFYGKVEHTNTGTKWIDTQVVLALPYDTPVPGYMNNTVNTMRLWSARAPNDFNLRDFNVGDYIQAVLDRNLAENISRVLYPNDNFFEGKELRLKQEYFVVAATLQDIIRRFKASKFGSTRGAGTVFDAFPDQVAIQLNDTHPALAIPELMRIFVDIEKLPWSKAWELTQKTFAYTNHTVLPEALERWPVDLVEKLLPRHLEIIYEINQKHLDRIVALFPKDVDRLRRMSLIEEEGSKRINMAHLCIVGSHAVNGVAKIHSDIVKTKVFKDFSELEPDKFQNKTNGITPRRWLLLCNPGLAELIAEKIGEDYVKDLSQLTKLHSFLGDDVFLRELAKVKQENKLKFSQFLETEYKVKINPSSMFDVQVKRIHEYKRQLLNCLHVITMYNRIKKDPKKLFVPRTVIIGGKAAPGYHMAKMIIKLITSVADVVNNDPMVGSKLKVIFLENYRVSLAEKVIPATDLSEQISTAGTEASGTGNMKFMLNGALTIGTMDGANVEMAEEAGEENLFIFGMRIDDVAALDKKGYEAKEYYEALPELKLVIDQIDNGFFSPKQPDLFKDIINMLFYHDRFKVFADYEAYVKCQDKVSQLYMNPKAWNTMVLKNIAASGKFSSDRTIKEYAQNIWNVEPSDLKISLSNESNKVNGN
assayName: Measuring liver glycogen phosphorylase activity (forward reaction system, NADPH absorbance at 340 nm)
Assay type: biochemical
details: compound concentration 300 nmol (in parentheses); read-out: inhibition rate (%) at a certain concentration
Threshold rule: inhibition at 0.3 µM greater than or equal to 20% is Met; below that, Not met.

molecule | categoryLabel
O=C(NC1CCCCC1)c1cc(NC(=O)c2cc(F)c(F)cc2Cl)[nH]n1 | Met

Data request: Can COCCN(Cc1ccccc1)C(=O)c1cc(NC(=O)c2cc(F)c(F)cc2Cl)[nH]n1 be said to have inhibition at 0.3 µM at or above 20%?
Data returned: Met

Data request: Can CN1CCC(N(C)C(=O)c2cc(NC(=O)c3cc(F)c(F)cc3Cl)[nH]n2)CC1 be said to have inhibition at 0.3 µM at or above 20%?
Data returned: Not met

Data request: Can O=C(NCc1ccccc1)c1cc(NC(=O)c2ccc(F)cc2C(F)(F)F)[nH]n1 be said to have inhibition at 0.3 µM at or above 20%?
Data returned: Not met

Data request: Can CCCCN(C(=O)c1cc(NC(=O)c2cc(F)c(F)cc2Cl)[nH]n1)C1CCC(C(=O)OC(C)(C)C)CC1 (centres unmarked) be said to have inhibition at 0.3 µM at or above 20%?
Data returned: Met

Data request: Can O=C(NCc1ccccc1)c1cc(NC(=O)c2ccc(Cl)nc2Cl)[nH]n1 be said to have inhibition at 0.3 µM at or above 20%?
Data returned: Not met

Data request: Can CCCCN(C(=O)c1cc(NC(=O)c2cc(F)c(F)cc2Cl)[nH]n1)C1CCS(=O)(=O)CC1 be said to have inhibition at 0.3 µM at or above 20%?
Data returned: Met

Data request: Can CCC(CC)N(CCOC)C(=O)c1cc(NC(=O)c2cc(F)c(F)cc2Cl)[nH]n1 be said to have inhibition at 0.3 µM at or above 20%?
Data returned: Met
